Assay Procedure: Single dose PK in healthy subjects (Cohorts 1, 2, S1 and S2), plasma
Assay type: in vivo, human
Settings: human, plasma, iv, 134.4 mg, 134.4 mg single IV infusion, healthy subjects; read-out: Ceoi Median

[
  {
    "Compound Smiles": "COC(=O)N1CCC[C@H](NS(C)(=O)=O)[C@@H]1CO[C@H]1CC[C@@H](c2ccccc2)CC1",
    "concentration at 9 h (ng/mL)": 300
  }
]

---

Assay Procedure: Single dose PK in healthy subjects (Cohorts 1, 2, S1 and S2), plasma
Type: in vivo, human
Settings: human, plasma, iv, 240 mg, 240 mg single IV infusion, healthy subjects; read-out: AUClast Geo Mean

[
  {
    "Compound": "COC(=O)N1CCC[C@H](NS(C)(=O)=O)[C@@H]1CO[C@H]1CC[C@@H](c2ccccc2)CC1 [Compound A]",
    "AUC(0-t) / µg·h/mL": 4.54
  }
]

---

Assay Procedure: Single dose PK in healthy subjects (Cohorts 1, 2, S1 and S2), plasma
Assay type: in vivo, human
Settings: human, plasma, intravenous, 56 mg; 1 hr; read-out: Plasma concentration, Q3

[
  {
    "Compound Smiles": "COC(=O)N1CCC[C@H](NS(C)(=O)=O)[C@@H]1CO[C@H]1CC[C@@H](c2ccccc2)CC1",
    "concentration at 1 h [µg/mL]": 0.0863
  }
]

---

Assay Procedure: Single dose PK in patients with narcolepsy (Cohorts 5, 6 and 7), plasma
Format: in vivo, human
Settings: human, plasma, intravenous, 5 mg, Cmpd A 5 mg; Median; Cohort 5, 6, 7; read-out: Ceoi
Endpoint Name: concentration at 9 h (ng/mL)

[
  {
    "Molecule": "COC(=O)N1CCC[C@H](NS(C)(=O)=O)[C@@H]1CO[C@H]1CC[C@@H](c2ccccc2)CC1 [Compound A]",
    "Endpoint Name": "concentration at 9 h",
    "Unit Label": "ng/mL",
    "Reading": 9.99
  }
]

---

Assay Procedure: Single dose PK in healthy subjects (Cohorts 1, 2, S1 and S2), plasma
Type: in vivo, human
Settings: human, plasma, intravenous, 7 mg; 0.33 hr After End of Infusion; read-out: Plasma concentration, Q1
Endpoint Name: concentration at 0.33 h after end of infusion (ng/mL)

[
  {
    "Compound Smiles": "COC(=O)N1CCC[C@H](NS(C)(=O)=O)[C@@H]1CO[C@H]1CC[C@@H](c2ccccc2)CC1",
    "Reading": 7.12
  }
]

---

Assay Procedure: Single dose PK in healthy subjects (Cohorts 1, 2, S1 and S2), plasma
Type: in vivo, human
Settings: human, plasma, iv, 56 mg, 56 mg single IV infusion, healthy subjects; read-out: Vz Median

[
  {
    "Molecule": "COC(=O)N1CCC[C@H](NS(C)(=O)=O)[C@@H]1CO[C@H]1CC[C@@H](c2ccccc2)CC1 [Compound A]",
    "Vd [L]": 282
  }
]

---

Assay Procedure: Single dose PK in healthy subjects (Cohorts 1, 2, S1 and S2), plasma
Assay type: in vivo, human
Settings: human, plasma, iv, 56 mg, 56 mg single IV infusion, healthy subjects; read-out: CL Mean (converted)
Endpoint Name: clearance

[
  {
    "Compound Smiles": "COC(=O)N1CCC[C@H](NS(C)(=O)=O)[C@@H]1CO[C@H]1CC[C@@H](c2ccccc2)CC1",
    "Endpoint Name": "clearance",
    "Reading": "885 mL/min"
  }
]
